- Tested on: 323965-272-R-J2-PDC complex spheroid viability
- PROCEDURE_TEXT: Anticancer human tumor 323965-272-R-J2-PDC patient-derived pancreatic carcinoma cell line growth inhibition [CLK]; active = viability on the fitted dose curve at most 10% of control; inactive = the rest
- CONDITIONS_USED: second compound 3.16 µM; first compound 0.316 µM
Return exactly one item of active, inactive

Here's what some known entries look like.
- MOLECULE: "Nc1ccccc1NC(=O)c1ccc(CNC(=O)OCc2cccnc2)cc1 + CNC(=O)c1ccc(Nc2nc(OC3CCCC3)c3c(-c4ccc5nc(C)oc5c4)c[nH]c3n2)c(OC)c1"
  ASSIGNED_CATEGORY: "inactive"
- MOLECULE: "CCCS(=O)(=O)Nc1ccc(F)c(C(=O)c2c[nH]c3ncc(-c4ccc(Cl)cc4)cc23)c1F + CN1CCN(c2cc(C(=O)Nc3cc4cc(-c5cnn(C)c5)ccc4cn3)ccn2)CC1"
  ASSIGNED_CATEGORY: "active"
- MOLECULE: "CCc1c2c(nc3ccc(O)cc13)-c1cc3c(c(=O)n1C2)COC(=O)[C@]3(O)CC + CNC(=O)c1ccc(Nc2nc(OC3CCCC3)c3c(-c4ccc5nc(C)oc5c4)c[nH]c3n2)c(OC)c1"
  ASSIGNED_CATEGORY: "inactive"
- MOLECULE: "O=c1[nH]cc(F)c(=O)[nH]1 + CNC(=O)c1ccc(Nc2nc(OC3CCCC3)c3c(-c4ccc5nc(C)oc5c4)c[nH]c3n2)c(OC)c1"
  ASSIGNED_CATEGORY: "inactive"

API: the following record is the query input.
Problem: Please indicate how the test categorized CC(=O)O[C@H]1C(=O)[C@@]2(C)[C@H]([C@H](OC(=O)c3ccccc3)[C@]3(O)C[C@H](OC(=O)[C@H](O)[C@@H](NC(=O)c4ccccc4)c4ccccc4)C(C)=C1C3(C)C)[C@]1(OC(C)=O)CO[C@@H]1C[C@@H]2O + CN1CCN(c2cc(C(=O)Nc3cc4cc(-c5cnn(C)c5)ccc4cn3)ccn2)CC1 .
Result: active

* * *

- Tested on: 323965-272-R-J2-PDC complex spheroid viability
- PROCEDURE_TEXT: Anticancer human tumor 323965-272-R-J2-PDC cell line growth inhibition [CLK]; active means viability on the fitted dose curve at most 10% of control; inactive means the rest;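 also: spheroids exposed to agents for seven days before readout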
- CONDITIONS_USED: second compound 1 µM; first compound 0.1 µM
- Description: A high-throughput screen of multi-cell type tumor spheroids was designed to identify active combinations of […] and targeted small molecules. Complex spheroids include a stromal component modeled by human endothelial cells (HUVEC) and fibroblasts modeled by human mesenchymal stem cells (MSCs). […] Compounds. […] If the clinical Cmax for an agent had not been determined, the highest concentration tested was 10 microM. […]
Tick one outcome: active, inactive

- COMPOUND: "Nc1ccn(C2OC(CO)C(O)C2(F)F)c(=O)n1 (stereo not given) + CNC(=O)c1ccc(Nc2nc(OC3CCCC3)c3c(-c4ccc5nc(C)oc5c4)c[nH]c3n2)c(OC)c1"
  ASSIGNED_CATEGORY: "inactive"
- COMPOUND: "COC1C=CCC(C)C(C)S(=O)(=O)NC(=O)c2ccc3c(c2)N(CC2CCC21)CC1(CCCc2cc(Cl)ccc21)CO3 (stereo not given) + CN1CCN(c2cc(C(=O)Nc3cc4cc(-c5cnn(C)c5)ccc4cn3)ccn2)CC1"
  ASSIGNED_CATEGORY: "active"
- COMPOUND: "CC(Nc1ccc2c(c1)OCCn1cc(N3C(=O)OCC3C(F)F)nc1-2)C(N)=O (stereo not given) + CN1CCN(c2cc(C(=O)Nc3cc4cc(-c5cnn(C)c5)ccc4cn3)ccn2)CC1"
  ASSIGNED_CATEGORY: "active"

Problem: Can you look up the reported call for O=C(c1cc(Cc2n[nH]c(=O)c3ccccc23)ccc1F)N1CCN(C(=O)C2CC2)CC1 + CNC(=O)c1ccc(Nc2nc(OC3CCCC3)c3c(-c4ccc5nc(C)oc5c4)c[nH]c3n2)c(OC)c1 for me?
Result: inactive

Problem: Record request — test call for CC(CO)NC(=O)c1cc(-c2ccc(Cl)cc2)nn(-c2cnn(C)c2)c1=O (stereo not given) + CN1CCN(c2cc(C(=O)Nc3cc4cc(-c5cnn(C)c5)ccc4cn3)ccn2)CC1
Result: active
